# Test system: IGROV-1
# Protocol Details: NCI tumour cell line growth inhibition, 48 h
Calls of active or inactive are those of the source. Cut-off read from the data, not from the text of the source: active = GI50 up to about 1.1 µM and inactive = higher.
# GI50 per entry

Compound | GI50
CC(C)(C)OC(=O)N1C(OP(=O)(Oc2ccccc2)Oc2ccccc2)=CSc2ccccc21 | 38.1 µM (inactive)

What reported GI50 corresponds to CN(C)C(C1=C(O)C(c2ccccc2)N(c2ccccc2)C1=O)N1CCOCC1 (stereo unspecified) on IGROV-1?
> 10 µM (inactive)

Another compound to check: CC(=O)SCCC1c2[nH]c3ccccc3c2CCN1O (stereo unspecified)
> 100 µM (inactive)

Another compound to check: Cn1[nH]nn/c1=N\N=C\c1ccccc1
> 10 µM (inactive)

Another compound to check: COC(=O)[C@@H]1C[C@@]2(C3C=CN(C(=O)C(F)(F)F)C=C3)c3ccccc3N(C(=O)C(F)(F)F)[C@H]2N1C(=O)OC
> 100 µM (inactive)

Another compound to check: COCCOCOc1ccc(OCOCCOC)c2c1C(=O)c1ccccc1C2=O
99.1 µM (inactive)

---

# GI50 per entry
# Tested on: A549
# Protocol Details: NCI tumour cell line growth inhibition, 48 h
Active and inactive are the calls of the source. Cut-off read from the data, not from the text of the source: active = GI50 up to about 1.1 µM and inactive = higher.

Compound | Target | GI50
CCOC(=O)C1(C/C=C/CBr)CCc2ccccc2C1=O (stereo not drawn) | A549 | 14 µM (inactive)
COc1cccc(C=C(C#N)C#N)c1OC | A549 | > 100 µM (inactive)
CCOC(=O)/C(=C\NC(C)(C)C)c1nc2ccccc2o1 | A549 | 42.4 µM (inactive)

Using the record for Cc1ccc(/C=C2\NC(=S)N(CN3CCCCC3)C2=O)cc1 , report its GI50.
51.2 µM (inactive)

---

# System: PC-3
# Protocol Details: NCI tumour cell line growth inhibition, 48 h
Calls of active or inactive are those of the source. No stated cut-off is given here; in the data, active = GI50 up to about 1.1 µM and inactive = higher.
Reported Endpoint: GI50

Molecule | GI50
Oc1c(Cl)c(Cl)c(Cl)c(Cl)c1Cl | 18.9 µM (inactive)

What reported GI50 corresponds to CCOC(=O)[C@@H]1OC(c2ccccc2)O[C@H]1C(=O)OCC on PC-3?
> 100 µM (inactive)

Another molecule to check: CN(C)CCCOc1nc2c(c(=O)n(C)c(=O)n2C)n1C.SC1=NC=NC2=NC=NC12
8.53 µM (inactive)

Another molecule to check: CCN(CC(COc1ccc2c(c1)[n+]([O-])nc(N)[n+]2[O-])OC(C)=O)C(C)=O (stereo unspecified)
76.9 µM (inactive)

Another molecule to check: C[N+]1([O-])C2CCC1CC(OC(=O)C(CO)c1ccccc1)C2 (stereo unspecified)
> 100 µM (inactive)

Another molecule to check: COC(=O)[C@@H]1CN(C(C)=O)C(=O)N1
> 100 µM (inactive)

Another molecule to check: Clc1ccc2nc3c(c(-c4ccccc4)nn3-c3ccccc3)c(-c3ccccc3)c2c1
> 100 µM (inactive)

Another molecule to check: CCN(CC)C(=O)N[C@@H](Cc1ccccc1)C(=O)NC
> 100 µM (inactive)

Another molecule to check: CC(=O)c1c(C(F)(F)F)[n+]([O-])c2cc(Cl)c(Cl)cc2[n+]1[O-]
1.31 µM (inactive)

Another molecule to check: Cc1ccc(C(=O)Nc2ccc(CP(=O)(O)O)cc2CP(=O)(O)O)cc1NC(=O)c1cccc(N)c1
> 100 µM (inactive)

Another molecule to check: O=C1OCC(c2ccc(Cl)cc2)=C1Cl
22.1 µM (inactive)

Another molecule to check: O=c1c2cc(S(=O)(=O)Nc3ccc(Cl)cc3Cl)ccc2ncn1NS(=O)(=O)c1cccc2ccccc12
23.7 µM (inactive)

Another molecule to check: N#Cc1c(NC(=S)NC(=O)c2ccccc2)nc2c(c1-c1ccccc1)CCCC2
> 100 µM (inactive)

Another molecule to check: O=C(Nc1ccccc1F)c1cc2ccc(O)cc2o/c1=N\c1ccccc1F
2.58 µM (inactive)

Another molecule to check: O=C1C(Cl)=C(OCCCCl)C(=O)c2c(O)ccc(O)c21
3.99 µM (inactive)

Another molecule to check: COc1ccc(/C=N/n2c(-c3ccccc3)n[nH]c2=O)c(OC)c1
50.1 µM (inactive)

---

# Test system: SF-539
# Protocol Details: NCI tumour cell line growth inhibition, 48 h
Active and inactive are the calls of the source. Rule as the data show it: active = GI50 up to about 1.1 µM and inactive = higher.
Reported Endpoint: GI50

Please review the following examples before continuing.
Molecule | Target | GI50
Cc1ccc(S(=O)(=O)N(C=O)N=C2CCN(Cc3ccccc3)CC2)cc1 | SF-539 | > 100 µM (inactive)
N#CC(=S)Nc1ccc(Cl)c(Cl)c1 | SF-539 | 20.7 µM (inactive)
c1ccc2c(c1)[nH]c1c2nc2ccccn21 | SF-539 | > 100 µM (inactive)
CCOC(=O)c1cc(-c2ccc([N+](=O)[O-])cc2)c([N+](=O)[O-])[nH]1 | SF-539 | > 10 µM (inactive)

# evaluate next
Using the record for C=CCC12CC(=O)C=C1CCC1(C2)OCCO1 (configuration not stated) , report its GI50.
> 100 µM (inactive)

---

# System: NCI/ADR-RES
# Protocol Details: NCI tumour cell line growth inhibition, 48 h
The source made the active and inactive calls. No stated cut-off is given here; in the data, active = GI50 up to about 1.1 µM and inactive = higher.
# valid calls are yes (active), no (inactive); nothing else

Observe how each entry below is paired with its result.
Molecule | Class Assignment
C=C1C(=O)O[C@H]2[C@H]1CC(=O)/C(C)=C/CC[C@@]1(C)O[C@@H]21 | no
CCOC(=O)/C(C(C)=O)=C(\OC(C)=O)c1ccncc1C(=O)O | no
O=C(N/N=C/c1ccc(Br)cc1)N/N=C/c1ccc(Br)cc1 | no
O=[N+]([O-])c1cccc2nccc(NCC(O)CO)c12 (configuration not stated) | no
NS(=O)(=O)c1ccc(Nc2c3ccccc3nc3c(C(=O)NC(CO)(CO)CO)cccc23)cc1 | yes
Cc1coc2c1C(=O)C(=O)c1c-2ccc2c1CCCC2(C)C [TANSHINONE IIA] | no

Tell me the recorded outcome of this test for CC(C)(C)c1cc(C(=O)C2Cc3ccccc3C(=O)O2)cc(C(C)(C)C)c1O (configuration not stated) .
no

Another molecule to check: CCOP(=O)(CN=C(c1ccccc1)c1ccccc1)OCC
no

Another molecule to check: OCC(O)C(O)C(O)C(O)c1nc2cc(Cl)ccc2[nH]1 (configuration not stated)
no

Another molecule to check: Cc1cnccc1/N=N/c1ccc(N(C)C)cc1
no

Another molecule to check: CC1(C)CC(=O)C2=C(C1)NC(SCC(=O)O)=C(C#N)C2c1ccc(Br)cc1 (configuration not stated)
no

---

# Tested on: SK-MEL-5
# Protocol Details: NCI tumour cell line growth inhibition, 48 h
The source made the active and inactive calls. Cut-off read from the data, not from the text of the source: active = GI50 up to about 1.1 µM and inactive = higher.
# GI50 per entry

Please review the following examples before continuing.
Compound | Target | Reported Endpoint | Endpoint Result
O=c1oc2cc(/N=C/c3ccc4c(c3)OCO4)ccc2c2ccccc12 | SK-MEL-5 | GI50 | 76.6 µM (inactive)
CCC1OC2C(CC=C(C)C)=C3OC(C)(O)C(C)(CC)C(OC(C)=O)C3=C3OC(=O)C=C1C32 (stereo not drawn) | SK-MEL-5 | GI50 | 20.4 µM (inactive)
CCc1cccc(CC)c1NC(=O)C1=C(C)NC(C)=C(C(=O)Nc2c(CC)cccc2CC)C1c1ccc([N+](=O)[O-])cc1 | SK-MEL-5 | GI50 | 15.1 µM (inactive)

Using the record for N#Cc1ccc(C2SCc3nc4ccccc4n32)cc1 (stereo not drawn) , report its GI50.
32.7 µM (inactive)

Another compound to check: C/C=C/COc1cc(NC(=S)OC(C)C)ccc1Cl.C/C=C\COc1cc(NC(=S)OC(C)C)ccc1Cl
16.2 µM (inactive)

Another compound to check: O=C(NNC(=O)c1ccccc1O)c1cccc(Br)c1
24.2 µM (inactive)

---

# Test system: SNB-78
# Protocol Details: NCI tumour cell line growth inhibition, 48 h
Active and inactive are the calls of the source. Cut-off read from the data, not from the text of the source: active = GI50 up to about 1.1 µM and inactive = higher.
# valid calls are true for active, false for inactive; nothing else

Molecule | Class Assignment
COc1cc2c(cc1O)[C@H](C)C(c1ccc(OC)c(OC)c1)O2 (some centres undefined) | false
CN1C2(c3ccccc3)C(C(=O)c3ccccc3)=C(C(=O)c3ccccc3)C1(c1ccccc1)c1c(-c3ccccc3)sc(-c3ccccc3)c12 | false
CC(=O)CN(Cc1cc(C)c2c(c1)c1ccccc1n2Cc1ccccc1)S(=O)(=O)c1ccc(C)cc1 | false
O=C(CNC(=O)OCc1ccccc1)Oc1ccccc1 | false
Clc1ccc(SC(/C=C/NNC2=NN=C(c3ccccc3)C(c3ccccc3)N2)c2ccccc2)cc1 (centres undefined) | false

Tell me the recorded outcome of this test for Cc1cc(NC(=O)NC(=O)c2ccccc2[N+](=O)[O-])ccc1Oc1ncc(Cl)cn1 .
true

Another molecule to check: COC1CC(Br)(C#N)C1 (centres undefined)
false

Another molecule to check: COc1ccc(/C=C\c2cc(OC)c(OC)c(OC)c2)cc1OC(=O)CC(N)C(=O)O (centres undefined)
true

Another molecule to check: CCOc1ccc(/N=C/c2ccc3ccccc3n2)cc1
false

Another molecule to check: CC1=C(C)CC2(SC1)C(=O)c1ccccc1C2=O
false

Another molecule to check: CSc1nc(NC2OC(COC(C)=O)C(OC(C)=O)C(OC(C)=O)C2OC(C)=O)c2c(OC(C)=O)c(C)c(=O)oc2n1 (centres undefined)
false

Another molecule to check: CCOC(=O)C1Cc2c(ccc(OC)c2OC)C(=O)C1N (centres undefined)
false

Another molecule to check: COc1ccccc1-n1c(NN)nc2ccc(Br)cc2c1=O
false

Another molecule to check: Cc1nc2ccccc2c(=O)n1/N=C(\N=N\c1ccccc1)c1ccccc1Cl
false

Another molecule to check: CCc1ccccc1NC(=O)C(=O)C1C(=O)N(c2ccccc2)N=C1N (centres undefined)
false

Another molecule to check: C[C@]12CCC(=O)C=C1CC[C@@H]1C2CC[C@]2(C)c3nn(-c4ccccc4)nc3CC12 (some centres undefined)
false

Another molecule to check: CCCCOC(=O)C1C2CCC(O2)C1C(=O)OCCCC (centres undefined)
false

Another molecule to check: CN1CC[C@]2(C)c3c(O)cccc3CC3CCCC1C32C (some centres undefined)
false

Another molecule to check: N#CC1=C(O)NC(O)=C(C#N)C1c1c(Cl)cccc1Cl
false

Origin of values: ChEMBL document CHEMBL1201862
